System: SK-MEL-2
test.name: NCI tumour cell line growth inhibition, 48 h
Active and inactive are the calls of the source. Rule as the data show it: active = GI50 up to about 1.1 µM and inactive = higher.
Answer with one of the outcomes given here: t (active), f (inactive)

IN: What was the test verdict on CC(=C/C=C/C=C(C)\C=C\C=C(\C)C(=O)O)/C=C/C=C(/C)C(=O)O ?
OUT: f

IN: Per the records of this test, what outcome belongs to Clc1cc(Cl)c2n[se]nc2c1 ?
OUT: f

IN: Hi, sorry to bother you, what did the test record for COc1nc(OC)nc(-c2cccc(F)c2)n1 ?
OUT: f

IN: Per the assay record, what outcome was assigned to CCOC(=O)CNC(=O)N(CC)C12CC3CC(CC(C3)C1)C2 ?
OUT: f

IN: Look up the recorded call for CC(C)(C)OC(=O)NC(Cc1ccccc1)OCc1ccccc1 (stereo not given) in this test.
OUT: f

IN: # lookup: test call for O=C1c2cc([N+](=O)[O-])sc2C(=O)c2ccsc21
OUT: t

IN: In this assay, the call recorded for COc1cc2c(cc1OCCCCOc1cc3c(cc1OC)C(=O)N1CCC[C@H]1C(=O)N3)N=C[C@@H]1CCCN1C2=O was what?
OUT: f

IN: Please let me know the test result on file for C=C1CC[C@@H]2C(C)(C)CCC[C@@]2(C)[C@@H]1Cc1cc(O)ccc1O .
OUT: f

IN: Give the logged outcome of this assay for the following molecule: CCCCCCCCCCCCCC(=O)N(CCCCCCCCC)CC(O)C(O)C(OC1OC(CO)C(O)C(O)C1O)C(O)CO (stereo not given)
OUT: f

IN: Could you check what this test reported for COc1ccc(N2C(=O)/C(=C/c3ccc(N(CCC#N)CCC#N)cc3)N=C2c2ccccc2)cc1 ?
OUT: f

----------
System: A498
test.name: NCI tumour cell line growth inhibition, 48 h
Active and inactive are the calls of the source. Cut-off read from the data, not from the text of the source: active = GI50 up to about 1.1 µM and inactive = higher.
quantity: GI50

IN: I'm curious: which GI50 was measured for Oc1ncnc2c1sc(=S)n2-c1ccccc1 tested on A498?
OUT: 94.8 µM (inactive)

IN: Form field - read-out: GI50; system: A498; submitted item: Cc1ccc(NC(=O)CC2C(=O)Nc3ccccc3[S+]2[O-])cc1C (stereo not given)
OUT: > 100 µM (inactive)

IN: Give the reported GI50 for N/C(=N\c1ccc(Cl)cc1)c1ccccc1N (system: A498).
OUT: > 100 µM (inactive)

IN: Fill in the recorded GI50 for this compound, with A498 as test system: COC(=O)CNC(=O)CCSc1nnc(COc2ccc(Cl)cc2)n1-c1ccccc1
OUT: > 100 µM (inactive)

IN: Form: Entry = CC(NC(NC(C)C12CC3CC(CC(C3)C1)C2)=C(C(Cl)=C(Cl)Cl)[N+](=O)[O-])C12CC3CC(CC(C3)C1)C2 (stereo not given) | System = A498 | GI50 = ____
OUT: 36.1 µM (inactive)

IN: // map N=C(N)C1CN(CCCCCCCCCCN2CC(C(=N)N)C(O)=NC2=O)C(=O)N=C1O (stereo not given) to recorded GI50 (system: A498)
OUT: > 10 µM (inactive)

IN: Observed GI50 on A498 for CCN(CC)CCNc1ccc2ncn3c4ccc(O)cc4c(=O)c1c23 , please.
OUT: 1.12 µM (inactive)

IN: Lab request: please report GI50 under test system A498 for NC(=S)N/N=C/c1ccc(OC(=O)COc2ccccc2Cl)cn1
OUT: > 72.8 µM (inactive)

IN: Missing value: GI50, A498, entry Cc1c(C)c([N+](=O)[O-])c2c(c1N)C(=O)c1ccccc1C2=O . Fill in?
OUT: > 100 µM (inactive)

IN: # value lookup — system A498, readout GI50, item O=C1c2ccccc2C(=O)c2c1ccc1c2N=C(c2ccc(F)cc2)CC(c2ccc(Cl)c(Cl)c2)N1 (stereo not given)
OUT: 19.5 µM (inactive)

----------
Tested on: RXF 393
test.name: NCI tumour cell line growth inhibition, 48 h
Calls of active or inactive are those of the source. No stated cut-off is given here; in the data, active = GI50 up to about 1.1 µM and inactive = higher.
quantity: GI50

IN: What value of GI50 has been recorded for this entry: O=c1ncccn1C1OC(CO)C(O)C1O (centres undefined)
OUT: > 100 µM (inactive)

IN: # lookup: GI50 of CN(C)c1ccc(/C=C2\CCc3ccccc3C2=O)cc1Br
OUT: 75.5 µM (inactive)

IN: Requested field: GI50. Item: Cc1ccc(C2=Nc3c(c(C)nn3-c3ccccc3)N=C(C(=O)O)C2)cc1
OUT: > 10 µM (inactive)

IN: Data request, read-out GI50, for CCOC(=O)C12CCC(c3c(C)cccc3C)(O1)C(C(=O)OC)=C2C(=O)OC (centres undefined)
OUT: 4.71 µM (inactive)

IN: For O=C(CC(NC(=O)C(F)(F)F)C(=O)O)OCc1ccccc1 (centres undefined) , what is its reported GI50?
OUT: > 100 µM (inactive)

IN: Need GI50 of O=C(c1ccc(Cl)cc1)N(C(=S)OC12CC3CC(CC(C3)C1)C2)c1ccccc1 , thanks.
OUT: 99.8 µM (inactive)

IN: Given the entry COc1c(C)cc(O)cc1C=O , report its measured GI50.
OUT: > 100 µM (inactive)

IN: Query: GI50; subject: NS(=O)(=O)c1ccc(NC(=O)Cc2nc3ccccc3s2)cc1
OUT: 18.6 µM (inactive)

IN: Which GI50 value belongs to O=[N+]([O-])c1ccc2c(c1)N=C1OC(c3c[nH]c4ccc(COc5ccccc5)cc34)C(O)=C1N2 (centres undefined) ?
OUT: > 100 µM (inactive)

----------
Exercise: state measured GI50 for each of the compounds provided.
System: K562
test.name: NCI tumour cell line growth inhibition, 48 h
The source made the active and inactive calls. No stated cut-off is given here; in the data, active = GI50 up to about 1.1 µM and inactive = higher.

IN: Find the measured GI50: item Cc1c2n(c(=O)[nH]c1=O)C1OC(CO)C(O2)C1N=[N+]=[N-] (stereo unspecified) , target or system K562.
OUT: > 100 µM (inactive)

IN: GET /values?readout=GI50&system=K562&item= CN(C)c1nncc2[nH]nnc12
OUT: > 100 µM (inactive)

IN: Identify the measured GI50 of COc1cc2c(cc1[N+](=O)[O-])C(=O)C(Br)(Br)CCC2 for K562.
OUT: 1.09 µM (active)

IN: Provide value of GI50 for this record tested with K562: Cc1nc2ccccc2n1COC(Cn1ccnc1)c1ccc(Cl)cc1Cl (stereo unspecified)
OUT: 42.8 µM (inactive)

IN: Which measured GI50 belongs to COc1ccc(/C=C2\Oc3cc(OC(C)=O)ccc3C2=O)cc1 , tested on K562?
OUT: 78.2 µM (inactive)

IN: What measured GI50 is associated with O=C(COc1ccccc1)N(C(=O)N1CCN(c2ccccc2)CC1)S(=O)(=O)c1ccccc1 on K562?
OUT: 33.8 µM (inactive)

IN: Form field - read-out: GI50; system: K562; submitted item: Cc1ncc([N+](=O)[O-])n1CC(O)Cn1cnc([N+](=O)[O-])n1 (stereo unspecified)
OUT: > 100 µM (inactive)

IN: # returns recorded GI50 (system: K562) for O=c1[nH]c2ccc(C(F)(F)F)cc2nc1-c1ccccc1
OUT: > 100 µM (inactive)

IN: Look up GI50 with K562 for this compound: CCSc1nc(N2CCOCC2)c2cn[nH]c2n1
OUT: > 100 µM (inactive)

IN: Hi! What's the reported GI50 for C/C(=N\NC(=S)NNC(=S)N(C)c1ccccc1)c1ccccn1 on K562?
OUT: 2.31 µM (inactive)

IN: Missing value: GI50, K562, entry COC(=O)CNC(=O)CCSc1nnc(COc2ccc(Cl)cc2)n1-c1ccccc1 . Fill in?
OUT: 30.3 µM (inactive)

----------
Test system: MOLT-4
test.name: NCI tumour cell line growth inhibition, 48 h
Calls of active or inactive are those of the source. Cut-off read from the data, not from the text of the source: active = GI50 up to about 1.1 µM and inactive = higher.
quantity: GI50

IN: What measured GI50 goes with O=C1CS[C@@](CC(c2ccc(Cl)cc2)c2ccc(Cl)cc2)(c2ccc(Cl)cc2)N1 ?
OUT: 3.32 µM (inactive)

IN: Given the molecule COC(=O)CC(CNC(=O)OCc1ccccc1)OCc1ccc(OC)cc1 (stereo unspecified) , what is its reported GI50?
OUT: > 100 µM (inactive)

IN: // lookup GI50 for CC1(C)S[C@H](CN)N[C@H]1C(=O)OC(c1ccccc1)c1ccccc1
OUT: 24.3 µM (inactive)

IN: Look up GI50 for this molecule: COC(=O)c1cc2ccc(OC(C)=O)c(OC(C)=O)c2cn1
OUT: 4.12 µM (inactive)

IN: Return reported GI50; argument: CCC1(CC)C(=O)NC(=O)NC1=S
OUT: > 100 µM (inactive)

IN: For the molecule CCN(CC)C(=S)Nc1ccc(-c2cc3ccc(O)cc3oc2=O)cc1 , what GI50 is on record?
OUT: 13.4 µM (inactive)

IN: Can you look up the measured GI50 of CN(O)C(=O)c1cccc(Cl)c1 for me?
OUT: 51.2 µM (inactive)

IN: Given the molecule N#CC(Cc1ccccc1)N(CCC1=CCCCC1)Cc1ccccc1 (stereo unspecified) , what is its reported GI50?
OUT: 22.3 µM (inactive)

IN: So what's the measured GI50 for this one? Cc1cn2c(=O)c3ncn(C4OC(CO)C(O)C4O)c3n(C)c2n1 (stereo unspecified)
OUT: > 100 µM (inactive)

IN: Can you share its GI50? I mean this molecule: CCOC(=O)c1c(NC(=O)c2ccc(Br)cc2)sc2c1CCCC2
OUT: > 100 µM (inactive)

IN: // returns reported GI50 for input COc1cc2c(cc1OC)-c1cc3ccc(OC)c(OC)c3c[n+]1CC2 [PALMATINE CHLORIDE]
OUT: > 100 µM (inactive)
